- tgt: OleA (Xanthomonas campestris pv. campestris, UniProt Q8PDX2)
- Construct: His-tag (N); made in house; host or cells: E. coli One Shot BL21 (DE3), pET28b+
- Sequence (Q8PDX2 whole entry): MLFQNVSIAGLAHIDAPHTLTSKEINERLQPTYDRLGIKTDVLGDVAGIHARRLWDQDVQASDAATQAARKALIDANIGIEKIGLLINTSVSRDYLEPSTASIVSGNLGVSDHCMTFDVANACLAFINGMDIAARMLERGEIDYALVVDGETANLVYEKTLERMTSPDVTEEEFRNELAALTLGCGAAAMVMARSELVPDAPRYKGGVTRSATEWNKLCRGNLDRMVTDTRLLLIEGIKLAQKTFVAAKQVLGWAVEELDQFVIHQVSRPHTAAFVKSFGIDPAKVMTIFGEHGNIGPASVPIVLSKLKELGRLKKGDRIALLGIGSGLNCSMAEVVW
- experiment.description: Release of CoASH thiol (DTNB) for assay of OleA substrate range
- Format: biochemical
- condition.parameters: starting substrate 65 μM; free coenzyme A detected with DTNB; average of triplicate determinations with standard error
Reported CoA Product by item:
Note: unit µM is implicit; provide only the numeric part.

Examples with their reported CoA Product follow.
[[record]]
smiles_notation = "CCCCCCCC(=O)SCCNC(=O)CCNC(=O)[C@H](O)C(C)(C)COP(=O)(O)OP(=O)(O)OC[C@H]1O[C@@H](n2cnc3c(N)ncnc32)[C@H](O)[C@@H]1OP(=O)(O)O"
readout_kind = "CoA Product"
reported_result = 8.0

[[record]]
smiles_notation = "CCCCCCCCCCCCCCCC(=O)SCCNC(=O)CCNC(=O)[C@H](O)C(C)(C)COP(=O)(O)OP(=O)(O)OC[C@H]1O[C@@H](n2cnc3c(N)ncnc32)[C@H](O)[C@@H]1OP(=O)(O)O"
readout_kind = "CoA Product"
reported_result = 65.0

[[record]]
smiles_notation = "CCCCCCCCCCCCCC(=O)SCCNC(=O)CCNC(=O)[C@H](O)C(C)(C)COP(=O)(O)OP(=O)(O)OC[C@H]1O[C@@H](n2cnc3c(N)ncnc32)[C@H](O)[C@@H]1OP(=O)(O)O"
readout_kind = "CoA Product"
reported_result = 63.2

[[record]]
smiles_notation = "CCCCCCCCCCCC(=O)SCCNC(=O)CCNC(=O)[C@H](O)C(C)(C)COP(=O)(O)OP(=O)(O)OC[C@H]1O[C@@H](n2cnc3c(N)ncnc32)[C@H](O)[C@@H]1OP(=O)(O)O"
readout_kind = "CoA Product"
reported_result = 51.4

[[record]]
smiles_notation = "CCCCCC/C=C\\CCCCCCCC(=O)SCCNC(=O)CCNC(=O)[C@H](O)C(C)(C)COP(=O)(O)OP(=O)(O)OC[C@H]1O[C@@H](n2cnc3c(N)ncnc32)[C@H](O)[C@@H]1OP(=O)(O)O"
readout_kind = "CoA Product"
reported_result = 36.9

[[record]]
smiles_notation = "CCCCCCCCCCCCCCCCCC(=O)SCCNC(=O)CCNC(=O)[C@H](O)C(C)(C)COP(=O)(O)OP(=O)(O)OC[C@H]1O[C@@H](n2cnc3c(N)ncnc32)[C@H](O)[C@@H]1OP(=O)(O)O"
readout_kind = "CoA Product"
reported_result = 18.7


q: Please look at this compound and report its CoA Product: CCCCCCCCCC(=O)SCCNC(=O)CCNC(=O)[C@H](O)C(C)(C)COP(=O)(O)OP(=O)(O)OC[C@H]1O[C@@H](n2cnc3c(N)ncnc32)[C@H](O)[C@@H]1OP(=O)(O)O
a: 27.2

----------
Reported % of Theoretical by item:
- tgt: OleA (Xanthomonas campestris pv. campestris)
- Construct: His-tag (N); made in house; host or cells: E. coli One Shot BL21 (DE3), pET28b+
- experiment.description: Release of CoASH thiol (DTNB) for assay of OleA substrate range
- Type: biochemical
- condition.parameters: starting substrate 65 μM; 65 μM of product is 100% of theoretical yield
Just so you know, I need the unit written after the number.

[[record]]
smiles_notation = "CCCCCCCCCC(=O)SCCNC(=O)CCNC(=O)[C@H](O)C(C)(C)COP(=O)(O)OP(=O)(O)OC[C@H]1O[C@@H](n2cnc3c(N)ncnc32)[C@H](O)[C@@H]1OP(=O)(O)O"
readout_kind = "% of Theoretical"
reported_result = "42%"


q: Give % of Theoretical for CCCCCC/C=C\CCCCCCCC(=O)SCCNC(=O)CCNC(=O)[C@H](O)C(C)(C)COP(=O)(O)OP(=O)(O)OC[C@H]1O[C@@H](n2cnc3c(N)ncnc32)[C@H](O)[C@@H]1OP(=O)(O)O
a: 57%

q: Answer with the recorded % of Theoretical for the compound listed here: CCCCCCCCCCCCCCCCCC(=O)SCCNC(=O)CCNC(=O)[C@H](O)C(C)(C)COP(=O)(O)OP(=O)(O)OC[C@H]1O[C@@H](n2cnc3c(N)ncnc32)[C@H](O)[C@@H]1OP(=O)(O)O
a: 29%

----------
// % of Theoretical lookup, one value per entry
- tgt: OleA (Xanthomonas campestris pv. campestris, UniProt Q8PDX2)
- Construct: His-tag (N); made in house; host or cells: E. coli One Shot BL21 (DE3), pET28b+
- experiment.description: Release of CoASH thiol (DTNB) for assay of OleA substrate range
- Type: biochemical
- condition.parameters: starting substrate 65 μM; 65 μM of product is 100% of theoretical yield
Write the value in % as a bare number.

Here are 3 molecules together with their reported answers.
[[record]]
smiles_notation = "CCCCCCCC(=O)SCCNC(=O)CCNC(=O)[C@H](O)C(C)(C)COP(=O)(O)OP(=O)(O)OC[C@H]1O[C@@H](n2cnc3c(N)ncnc32)[C@H](O)[C@@H]1OP(=O)(O)O"
readout_kind = "% of Theoretical"
reported_result = 12

[[record]]
smiles_notation = "CCCCCCCCCCCC(=O)SCCNC(=O)CCNC(=O)[C@H](O)C(C)(C)COP(=O)(O)OP(=O)(O)OC[C@H]1O[C@@H](n2cnc3c(N)ncnc32)[C@H](O)[C@@H]1OP(=O)(O)O"
readout_kind = "% of Theoretical"
reported_result = 79

[[record]]
smiles_notation = "CCCCCCCCCCCCCCCC(=O)SCCNC(=O)CCNC(=O)[C@H](O)C(C)(C)COP(=O)(O)OP(=O)(O)OC[C@H]1O[C@@H](n2cnc3c(N)ncnc32)[C@H](O)[C@@H]1OP(=O)(O)O"
readout_kind = "% of Theoretical"
reported_result = 100


For the next question, use this molecule.
q: Supply recorded % of Theoretical for CCCCCCCCCCCCCC(=O)SCCNC(=O)CCNC(=O)[C@H](O)C(C)(C)COP(=O)(O)OP(=O)(O)OC[C@H]1O[C@@H](n2cnc3c(N)ncnc32)[C@H](O)[C@@H]1OP(=O)(O)O here.
a: 97
